// provenance: ChEMBL document CHEMBL3988442

biological target: Shiga toxin 2 (Escherichia coli O157:H7) (UniProt P09385+P09386); assay: E. coli 0.157:H7 Shiga Toxin SOP - stx2 screening assay; format: functional; parameters: scale not given: direction of the effect not stated beside the values; details: 30 µM
PROPERTY: Percent Effect (%)

CCCc1n[nH]c(C2CN(C(=O)c3ccco3)CCO2)n1 (configuration not stated): 8.05
O=C(c1cccnc1N1CCOCC1)N1CCCC(n2ccnc2)C1 (configuration not stated): 31.6
O=C(CCc1ccccn1)N1CCc2cc(Cl)cc(Cl)c2C1: -69.6
Cc1ccc(NC(=O)C2CSCN2C(=O)c2cnn(C)c2)c(C)c1 (configuration not stated): -0.207
CC(=O)N1CCC(Oc2ccc(Cl)cn2)CC1: -4.66
O=C(Cc1c[nH]c2ccccc12)N1CCC(Nc2cccnn2)CC1: -4.79
c1ccc2sc(CN3CCOC(Cn4cncn4)C3)nc2c1 (configuration not stated): 14
Cc1cc(C(F)(F)F)nn1CC(C)C(=O)Nc1ccncc1 (configuration not stated): -18.1
Cc1nc(C)n(CC2CCCN(c3ncnc4[nH]ccc34)C2)n1 (configuration not stated): 2.99
Cc1cnn(CCNCc2ccccc2Oc2cccnc2)c1: -15.5
CC(CNC(=O)Nc1cn[nH]c1)N1CCc2ccccc2C1 (configuration not stated): 21.5
Cc1nnc2n1CCN(Cc1ncc(-c3ccc(Cl)cc3)o1)C2: 25.1
Cc1cnc(C(=O)N2CCCC(n3ccnc3C)C2)cn1 (configuration not stated): -18.1
CN(C)S(=O)(=O)N1CC[C@]2(C[C@H](Oc3cccnc3)CO2)C1: -27.2
COc1ccccc1CC(=O)N1CCC(NCc2cc[nH]c2)CC1: -11.8
CC(C)CN1C[C@H]2CCN(c3ncccn3)CC[C@H]2S1(=O)=O: -33
Cn1cccc1C(=O)N1CCc2ncc(Cn3cccn3)n2CC1: -19.1
CC(C)Cc1cc(NC(=O)c2ccc(=O)[nH]n2)n(C)n1: -34.7
Cc1ncsc1CN1C[C@H](C(=O)N2CCCO2)[C@@H]2CCO[C@@H]2C1: -4.78
CCc1nc(CN2CCCN(c3ncnc4ccccc34)CC2)no1: -69.3
CCN(C)c1ncnc2c1CCN(Cc1csc(C)n1)CC2: -3.16
COCCO[C@@H]1C[C@H]2CN(C(=O)c3ccc(C)nc3)CCN2C1: -18.6
Cc1nc(C)n(CC2CCCN2Cc2nc(N)c3ccccc3n2)n1 (configuration not stated): -29.4
CCn1nnc2c1C(COC)CN(Cc1ccsc1)C2 (configuration not stated): -3.86
COCc1cccc(C(=O)N2CCCCC2c2nccs2)c1 (configuration not stated): 18.2
COc1ccccc1Oc1ncccc1CNC(=O)[C@@H](C)NC(C)=O: -19.5
Cc1nccc(CN2CCC(c3nnsc3S(C)(=O)=O)CC2)n1: 5.72
Cc1ccc(C(=O)NC(C)CN2CCCC2=O)c(=O)[nH]1 (configuration not stated): -3.66
CCC1=N[C@@]2(CC[C@@H]3CN(C(=O)NCC(C)C)C[C@@H]32)C(=O)N1CC(C)C: -9.55
CC(C)N(C)Cc1nnc2n1CCCN(C(=O)c1ccco1)C2: -12.8
CC(CN1CCOCC1)NCc1nncn1C1CCCCC1 (configuration not stated): -15.5
CC(=O)N1CCn2c(C(=O)N(C)C)cnc2C1: -21.6
Cc1noc(C(C)C)c1C(=O)NS(=O)(=O)c1ccc2c(c1)OCCCO2: -0.248
CC(C)N(C)C(=O)CN1CCCC(c2ccc(C(=O)O)cc2)C1 (configuration not stated): 5.69
Cc1nn(CC(C)C)c(N(C)C)c1CNCc1cccnc1N(C)C: 24.5
Cc1noc(C)c1CN1C[C@H](OCC2CC2)[C@H]2OCCC[C@H]21: -3.9
CC(=O)NC1CCCN(C(=O)Nc2cnc3c(cnn3C(C)C)c2)C1 (configuration not stated): 18
Cc1nc(COC[C@@H]2CC[C@H]3[C@H](CCN3c3ncccn3)O2)cs1: -14.4
CCn1ccnc1CN1CCN(CCOc2cccc(C#N)c2)CC1: -9.38
c1cc(-c2cnccn2)cc(-c2ccn(CCN3CCCC3)n2)c1: -29.3
Nc1cc(N2CCCC2c2cnccn2)ncn1 (configuration not stated): 0.702
CN(C)CC1CN(C(=O)NCc2ccccc2)Cc2nccn2C1 (configuration not stated): -2.62
CCc1noc(C(C)N2CCN(Cc3nc(C)c(C)o3)CC2)n1 (configuration not stated): 10.2
CN(C)C(=O)COC[C@]12COC[C@H]1CN(CC1CCC1)C2: -9.5
CC(CN1CCCC1)C(=O)N1CCC(c2nccn2CC2CC2)CC1 (configuration not stated): -15.6
O=C1CSC(c2ccc(O)c(Cl)c2)c2c(n(C3CCOCC3)[nH]c2=O)N1 (configuration not stated): -12.7
Cn1nnc2c1C(COCc1ccccn1)CN(C(=O)c1cccs1)C2 (configuration not stated): 13.7
